Would you kindly list MEAN CORPUSCULAR VOLUME for each of these molecules?
- Species: Rattus norvegicus
- TEST_DESCRIPTION: DrugMatrix - Regimen: Daily Repeat
- Type: toxicity, organism-based, Sprague-Dawley
- Design: regimen Daily Repeat, gender Male, age 6-8 weeks
- CONDITIONS_USED: in vivo, po, 0 mg/kg, 72 h, tissue Blood, route oral GAVAGE, dose level Control, time 3 day, vehicle 100 % WATER
Answers are plain numbers, in fL.

A selection of reference data follows.
>>> value_reported("C[C@](N)(Cc1ccc(O)c(O)c1)C(=O)O")
64.8
>>> value_reported("CC(O)CO (stereo not given)")
63.7
>>> value_reported("Clc1cccc(Cl)c1N=C1NCCN1")
61.23
>>> value_reported("CN(C)CCCN1c2ccccc2Sc2ccc(Cl)cc21")
65.63
>>> value_reported("NCCCCCC(=O)O")
63.7

Respectfully, I request MEAN CORPUSCULAR VOLUME for each entry included below.
1. Cn1cc[nH]c1=S
2. C[C@H]1c2cccc(O)c2C(=O)C2=C(O)[C@]3(O)C(=O)C(C(N)=O)=C(O)[C@@H](N(C)C)[C@@H]3[C@@H](O)[C@@H]21.O

62.88
63.52

---

- Organism: Rattus norvegicus
- TEST_DESCRIPTION: DrugMatrix - Regimen: Daily Repeat
- Format: toxicity, organism-based, Sprague-Dawley
- Set-up: regimen Daily Repeat, gender Male, age 6-8 weeks
- CONDITIONS_USED: in vivo, po, 0 mg/kg, 120 h, tissue Plasma, route oral GAVAGE, dose level Control, time 5 day, vehicle .5 % CMC
MEASURED_ENDPOINT: CHOLESTEROL (mg/dL)
Give bare numbers, in mg/dL.

>>> value_reported("COc1nc(C)nc(Cl)c1N=C1NCCN1")
69.83
>>> value_reported("NC1=NC(=O)C(c2ccccc2)O1 (stereo not drawn)")
75.5
>>> value_reported("CC(C)(C)NC(=O)[C@@H]1C[C@@H]2CCCC[C@@H]2CN1C[C@@H](O)[C@H](Cc1ccccc1)NC(=O)[C@H](CC(N)=O)NC(=O)c1ccc2ccccc2n1")
71.33
>>> value_reported("O=C(CCCN1CC=C(n2c(=O)[nH]c3ccccc32)CC1)c1ccc(F)cc1")
66.33
>>> value_reported("CCCCc1oc2ccccc2c1C(=O)c1cc(I)c(OCCN(CC)CC)c(I)c1")
65.17
>>> value_reported("CCOP(=S)(OCC)Oc1nc(Cl)c(Cl)cc1Cl")
73.33
>>> value_reported("ClC(Br)Br")
71.83

Below: the item to evaluate.
Please list CHOLESTEROL recorded for the molecule Cc1ccc(/N=C/N(C)/C=N/c2ccc(C)cc2C)c(C)c1
71

---

- Species on record: Rattus norvegicus
- Type: toxicity, organism-based, Sprague-Dawley
- CONDITIONS_USED: in vivo, po, 120 mg/kg, 24 h, tissue Blood, route oral GAVAGE, dose level High, time 1 day, vehicle 100 % WATER
- Description: DrugMatrix - Regimen: Single
MEASURED_ENDPOINT: ABSOLUTE BASOPHIL (cells/µL)
Numbers only, in cells/µL.

Input COCCc1ccc(OCC(O)CNC(C)C)cc1 (stereo unspecified) , output reported ABSOLUTE BASOPHIL.
66.7

---

- Organism: Rattus norvegicus
- TEST_DESCRIPTION: DrugMatrix - Regimen: Daily Repeat
- Assay type: toxicity, organism-based, Sprague-Dawley
- Parameters: regimen Daily Repeat, gender Male, age 6-8 weeks
- CONDITIONS_USED: in vivo, po, 0 mg/kg, 72 h, tissue Blood, route oral GAVAGE, dose level Control, time 3 day, vehicle 100 % WATER
So I've got a bunch of molecules here, and I need their HEMOGLOBIN values.
Answers are plain numbers, in G/DL.

Answered cases to consult:
>>> value_reported("Clc1cccc(Cl)c1N=C1NCCN1")
13.72
>>> value_reported("C[C@H](CS)C(=O)N1CCC[C@H]1C(=O)O")
12.98
>>> value_reported("CNNCc1ccc(C(=O)NC(C)C)cc1")
12.88
>>> value_reported("Cn1cc[nH]c1=S")
13.33
>>> value_reported("C[C@](N)(Cc1ccc(O)c(O)c1)C(=O)O")
12.55

Here is another molecule to look at.
Quick one: give measured HEMOGLOBIN for C=CCC1(C(C)CCC)C(=O)NC(=O)NC1=O (stereo unspecified)
13.17

// data source = ChEMBL document CHEMBL3885881
